# System: Mus musculus
# assay_name: Antidepressant activity in pargyline-pretreated mouse assessed as potentiation of serotonin-induced tremor, head movements, abducted limbs and irritability at 100 mg/kg, po treated 1 hr prior to serotonin-challenge
# Type: functional, organism-based
# Parameters: dose 100 mg/kg
Activity calls are given as the source filed them. No cut-off for these calls is given here.
Result category, one only: active, inactive

Q) Check the results log: what was the call for CN(C)C1CCCCC(=C2c3ccccc3CCc3ccccc32)C1 (stereo not given) ?
A) inactive

Q) Given CN1C2CCC1CC(=C1c3ccccc3CCc3ccccc31)C2 , state the outcome it received in this test.
A) active

Q) Give the logged outcome of this assay for the following compound: CN(C)C1C=C(C2c3ccccc3C=Cc3ccccc32)CCC1 (stereo not given)
A) active

Q) Given CN1CC2C(C1)C21c2ccccc2CCc2ccc(Cl)cc21 (stereo not given) , state the outcome it received in this test.
A) active

Q) How was CN(C)CCCN1c2ccccc2CCc2ccc(Cl)cc21 classified in this test?
A) active
